experiment description: Pharmacokinetic study in sham and myocardial ischemia model rats after a single oral dose of QSKL (UHPLC-psMS/MS of plasma, non-compartmental analysis)
assay conditions: male, Sprague-Dawley, rat, plasma, po, 8 g/kg, AUC0–t, model group (MG, myocardial ischemia) rats, oral administration of QSKL, plasma, mean ± SD, n = 6
Measured log10 of AUC(0-t) by item
reported metric: log10 of AUC(0-t) (log10 of the value in ng·h/mL)

- compound: "COC(=O)C1=CO[C@@H](O[C@@H]2O[C@H](CO)[C@@H](O)[C@H](O)[C@H]2O)[C@@H]2[C@H](C)O[C@@H](O)C[C@H]12 [morroniside]"
  log10 of AUC(0-t): 1.29
- compound: "COc1ccc(-c2coc3cc(O)ccc3c2=O)cc1 [formononetin]"
  log10 of AUC(0-t): 0.08
- compound: "O=C(/C=C/c1ccc(O)cc1)c1ccc(O)cc1O [isoliquiritigenin]"
  log10 of AUC(0-t): 0.19
- compound: "CC1(C)[C@@H](O)CC[C@]2(C)[C@H]3C(=O)C=C4[C@@H]5C[C@@](C)(C(=O)O)CC[C@]5(C)CC[C@@]4(C)[C@]3(C)CC[C@@H]12 [glycyrrhetic acid]"
  log10 of AUC(0-t): 3.70
- compound: "Cc1coc2c1C(=O)C(=O)c1c-2ccc2c1CCCC2(C)C [tanshinone IIA]"
  log10 of AUC(0-t): 0.63
- compound: "CC1(C)[C@@H](O[C@H]2O[C@H](C(=O)O)[C@@H](O)[C@H](O)[C@H]2O[C@@H]2O[C@H](C(=O)O)[C@@H](O)[C@H](O)[C@H]2O)CC[C@]2(C)[C@H]3C(=O)C=C4[C@@H]5C[C@@](C)(C(=O)O)CC[C@]5(C)CC[C@@]4(C)[C@]3(C)CC[C@@H]12 [glycyrrhizic acid]"
  log10 of AUC(0-t): 1.86
- compound: "C[C@]1(OC(=O)/C=C/c2ccccc2)C[C@@H](O)[C@]2(O)C=CO[C@@H](O[C@@H]3O[C@H](CO)[C@@H](O)[C@H](O)[C@H]3O)[C@@H]21 [harpagoside]"
  log10 of AUC(0-t): 0.38
- compound: "COc1ccc(-c2coc3cc(O)ccc3c2=O)cc1O [calycosin]"
  log10 of AUC(0-t): -0.05

====

Measured Tmax by item
experiment description: in vivo
assay conditions: male, Sprague-Dawley, rat, po, 8 g/kg, Tmax, model group (MG, myocardial ischemia) rats, oral administration of QSKL, plasma, mean ± SD, n = 6

- compound: "COCC12CCC(OC)C34C5CC6(O)C(OC)C(O)C(O)(C5C6OC(=O)c5ccccc5)C(C(OC)C13)C4N(C)C2 (stereo not shown)"
  Tmax: "25.8 min"
- compound: "COCC12CN(C)C3C4C(OC)C1C3(C(OC)CC2O)C1CC2(O)C(OC)C(O)C4(O)C1C2OC(=O)c1ccccc1 (stereo not shown)"
  Tmax: "28.2 min"
- compound: "COC[C@@]12CC[C@H](OC)[C@]34C(C([C@H](OC)[C@H]13)[C@]1(OC(C)=O)[C@H]3[C@@H](OC(=O)c5ccccc5)[C@](O)(C[C@H]34)[C@@H](OC)[C@@H]1O)N(C)C2"
  Tmax: "92.4 min"
- compound: "O=C(/C=C/c1ccc(O[C@@H]2O[C@H](CO)[C@@H](O)[C@H](O)[C@H]2O)cc1)c1ccc(O)cc1O"
  Tmax: "25.8 min"
